Biological target: stromelysin (MMP-3) (Homo sapiens, UniProt P08254)
Construct: enzymatic activity of the catalytic domains of human stromelysin and of neutrophil collagenase
Sequence (P08254 100-272 limits assumed): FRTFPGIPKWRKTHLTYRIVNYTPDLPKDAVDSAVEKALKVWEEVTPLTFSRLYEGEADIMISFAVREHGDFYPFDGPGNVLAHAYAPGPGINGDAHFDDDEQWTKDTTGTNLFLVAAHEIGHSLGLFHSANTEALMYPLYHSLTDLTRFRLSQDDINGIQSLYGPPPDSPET
Assay: Enzyme inhibition of the catalytic domain of human stromelysin (fluorogenic substrate)
Details: 15 min preincubation, pH=6.5, fluorescence 328 nm (ex)/393 nm (em)
measure: IC50 (µM)

>>> value_measured("CN(CCC[C@H](NS(=O)(=O)c1ccc(-c2ccc(Cl)cc2)cc1)C(=O)O)Cc1ccccc1")
0.01
>>> value_measured("O=C(/C=C/c1ccc(F)cc1)NCCC[C@H](NS(=O)(=O)c1ccc(-c2ccc(Cl)cc2)cc1)C(=O)O")
0.02
>>> value_measured("O=C(NCCC[C@H](NS(=O)(=O)c1ccc(-c2ccc(Cl)cc2)cc1)C(=O)O)c1ccncc1")
0.02
>>> value_measured("COc1cccc(C(=O)NCCC[C@H](NS(=O)(=O)c2ccc(-c3ccc(Cl)cc3)cc2)C(=O)O)c1")
0.06
>>> value_measured("O=C(NCCC[C@H](NS(=O)(=O)c1ccc(-c2ccc(Cl)cc2)cc1)C(=O)O)c1ccc(OC(F)(F)F)cc1")
0.04
>>> value_measured("O=C(NCCC[C@@H](NS(=O)(=O)c1ccc(-c2ccc(Cl)cc2)cc1)C(=O)O)c1ccc(F)cc1")
0.01
>>> value_measured("O=C(NCCC[C@@H](NS(=O)(=O)c1ccc(-c2ccc(Cl)cc2)cc1)C(=O)O)Nc1ccccc1")
0.01
